The reported numbers originate from the supplement of paper PMC6897291.

Test system: U-2932
Assay: growth inhibition by drug plus 177Lu-lilotomab satetraxetan (1 - RLU/untreated control) (fraction); higher = stronger inhibition
Details: 10 nM; time (day): 6; 177Lu-lilotomab satetraxetan 1 ug/ml
Assay endpoint: growth inhibition by drug plus 177Lu-lilotomab satetraxetan
API note: the answer field is a bare number with no unit suffix.

Compound	Recorded measurement
COc1cc2ncnc(-n3nc(-c4ccccn4)nc3N)c2cc1OC	0.113
O=C1c2ccccc2C(=O)c2c(NCCc3ccc(O)cc3)ccc(NCCc3ccc(O)cc3)c21	-0.0701
C[C@@H](O[C@H]1OCCN(Cc2n[nH]c(=O)[nH]2)[C@H]1c1ccc(F)cc1)c1cc(C(F)(F)F)cc(C(F)(F)F)c1 [Aprepitant (MK-0869)]	-0.121

The measured growth inhibition by drug plus 177Lu-lilotomab satetraxetan associated with "COc1cc(OC2CCN(C)CC2)ccc1Nc1ncc2c(n1)n(C1CCCC1)c(=O)n2C" reads 0.102

* * *

System: RIVA
Assay: growth inhibition by drug plus 177Lu-lilotomab satetraxetan (1 - RLU/untreated control) (fraction); higher = stronger inhibition
Conditions: 100 nM; time (day): 5; 177Lu-lilotomab satetraxetan 0.5 ug/ml
Could you please classify the records by growth inhibition by drug plus 177Lu-lilotomab satetraxetan using these ranges: low interval = under 0.5, middle interval = from 0.5 up to 0.6, high interval = 0.6 and over

Query :: Band assignment needed for "Cc1ccc(F)c(NC(=O)Nc2ccc(-c3cccc4[nH]nc(N)c34)cc2)c1" please.
Result :: middle interval

Query :: Bin? "C#Cc1cccc(Nc2ncnc3cc(OC)c(OCCCCCCC(=O)NO)cc23)c1"
Result :: high interval

Query :: Hello team, could you let me know which band the following compound falls into: "Cc1c(CCOc2ccc(C(=O)O)cc2)c2cc(Cl)ccc2n1C(c1ccccc1)c1ccccc1"
Result :: low interval

Query :: State the band of "C[C@H](NC(=O)Cc1cc(F)cc(F)c1)C(=O)N[C@@H]1C(=O)N(C)c2ccccc2-c2ccccc21"
Result :: low interval

Query :: Record O=C(O)C(Cc1c[nH]c2ccccc12)N1C(=O)c2ccccc2C1=O (configuration not stated) — which class?
Result :: low interval

Query :: Which growth inhibition by drug plus 177Lu-lilotomab satetraxetan band matches CN(Cc1cnc2nc(N)nc(N)c2n1)c1ccc(C(=O)N[C@@H](CCC(=O)O)C(=O)O)cc1 [Abitrexate (Methotrexate)] ?
Result :: low interval

Query :: Category lookup for the compound COc1ccc2c(c1)CCC1C2CCC2(C)C(NCCCCCCN3C(=O)C=CC3=O)CCC12 (configuration not stated)
Result :: middle interval

* * *

Tested on: RIVA
Assay: growth inhibition by drug alone (1 - RLU/untreated control) (fraction); higher = stronger inhibition
Conditions: 100 nM; time (day): 6; 177Lu-lilotomab satetraxetan 0 ug/ml
Please note: yes applies when growth inhibition by drug alone is -0.4 or greater, and no applies otherwise.

Illustrative cases are given below, each with its answer.
Compound	Assigned category
Cc1cc(O)c2c(c1)C(=O)c1cccc(O)c1C2=O [Chrysophanic acid (Chrysophanol)]	yes
C[C@@H](O[C@H]1OCCN(Cc2n[nH]c(=O)[nH]2)[C@H]1c1ccc(F)cc1)c1cc(C(F)(F)F)cc(C(F)(F)F)c1 [Aprepitant (MK-0869)]	yes

Query :: Kindly determine if growth inhibition by drug alone recorded for "N#CC[C@H](C1CCCC1)n1cc(-c2ncnc3[nH]ccc23)cn1" is above or exactly -0.4.
Result :: yes

Query :: Assess whether reported growth inhibition by drug alone for "C=CC(=O)Nc1cccc(Oc2nc(Nc3ccc(N4CCN(C)CC4)cc3OC)ncc2Cl)c1" sits at -0.4 or higher.
Result :: yes

Query :: Kindly determine if growth inhibition by drug alone recorded for "CC(C)n1nc(-c2ccc3oc(N)nc3c2)c2c(N)ncnc21" is above or exactly -0.4.
Result :: yes

* * *

Here, each record is paired with measured growth inhibition by drug plus 177Lu-lilotomab satetraxetan data.
Test system: RIVA
Experiment: growth inhibition by drug plus 177Lu-lilotomab satetraxetan (1 - RLU/untreated control) (fraction); higher = stronger inhibition
Details: 100 nM; time (day): 6; 177Lu-lilotomab satetraxetan 0.5 ug/ml
Counter-ions that a name gives are not always drawn.

Compound	Recorded measurement
O=C(O)CCCc1ccccc1 [4-Phenylbutyrate]	0.511
CC(C)C[C@H](NC(=O)[C@H](Cc1ccccc1)NC(=O)c1cnccn1)B(O)O	0.99

Value of measured growth inhibition by drug plus 177Lu-lilotomab satetraxetan for the entry C#Cc1cccc(Nc2ncnc3cc(OCCOC)c(OCCOC)cc23)c1 [Erlotinib HCl] : 0.724

"Cc1cnc(NC(=O)Nc2cc(Br)c(C)cc2OC[C@@H]2CNCCO2)cn1" has a reported growth inhibition by drug plus 177Lu-lilotomab satetraxetan of 0.246

Lab note: measured growth inhibition by drug plus 177Lu-lilotomab satetraxetan of "O=C(O)Cc1cccc(OCCCN(Cc2cccc(C(F)(F)F)c2Cl)CC(c2ccccc2)c2ccccc2)c1" was 0.893

Reported growth inhibition by drug plus 177Lu-lilotomab satetraxetan for CN(C)CCOc1ccc(/C(=C(/CCCl)c2ccccc2)c2ccccc2)cc1 [Toremifene Citrate (Fareston, Acapodene)] was 0.72

* * *

Tested on: RIVA
Assay: growth inhibition by drug plus 177Lu-lilotomab satetraxetan (1 - RLU/untreated control) (fraction); higher = stronger inhibition
Details: 10 nM; time (day): 3; 177Lu-lilotomab satetraxetan 0.5 ug/ml
Assay endpoint: growth inhibition by drug plus 177Lu-lilotomab satetraxetan
Give your answer as a number; write no unit.

Compound	Recorded measurement
C[C@@H](Oc1cc(-n2cnc3ccc(CN4CCN(C)CC4)cc32)sc1C(N)=O)c1ccccc1C(F)(F)F	0.759

// sample "COc1ccc(-c2oc3cc(OC)ccc3c2C(=O)c2ccc(C#N)cc2)cc1" , its growth inhibition by drug plus 177Lu-lilotomab satetraxetan was 0.441

For reference, reported growth inhibition by drug plus 177Lu-lilotomab satetraxetan for CC(NC(=O)c1ccccc1/N=C/c1c(O)ccc2ccccc12)c1ccccc1 (centres undefined) [Sirtinol] stands at 0.345

Data point: "CC1(COc2ccc3c(c2)ncn3-c2ccc3cccc(N4CCC(N)CC4)c3n2)COC1" ; growth inhibition by drug plus 177Lu-lilotomab satetraxetan = 0.618

* * *

Tested on: RIVA
Assay: growth inhibition by drug alone (1 - RLU/untreated control) (fraction); higher = stronger inhibition
Details: 10 nM; time (day): 6; 177Lu-lilotomab satetraxetan 0 ug/ml
Label true (1) when growth inhibition by drug alone >= -0.2; otherwise false (0).

Solved entries (count: 3):
Compound	Measurement target	Assigned category
CS(=O)(=O)N1CCN(Cc2cc3nc(-c4cccc5[nH]ncc45)nc(N4CCOCC4)c3s2)CC1	RIVA	false (0)
Nc1ccccc1NC(=O)c1ccc(CNC(=O)OCc2cccnc2)cc1 [Entinostat (MS-275, SNDX-275)]	RIVA	true (1)
OCCn1cc(-c2cnc3nnn(Cc4ccc5ncccc5c4)c3n2)cn1	RIVA	true (1)

Query :: Say whether "CS(=O)(=O)N1CCc2c(-c3cnc(N)nc3)nc(N3CCOCC3)nc21" shows growth inhibition by drug alone of -0.2 or more.
Result :: false (0)

Query :: Is reported growth inhibition by drug alone greater than or equal to -0.2 here: "COc1ccc(CNC(=O)Nc2ncc([N+](=O)[O-])s2)cc1"
Result :: true (1)

Query :: Textbook exercise: given the entry "Nc1nccc(Oc2ccc(NC(=O)c3c[nH]cc(-c4ccc(F)cc4)c3=O)cc2F)c1Cl" , state whether its growth inhibition by drug alone is greater than or equal to -0.2.
Result :: false (0)

Query :: Answer whether growth inhibition by drug alone of Nc1ncn([C@@H]2O[C@H](CO)[C@@H](O)[C@H]2O)c(=O)n1 [Azacitidine (Vidaza)] is greater than or equal to -0.2.
Result :: false (0)

Query :: Decide: growth inhibition by drug alone of O=C1[C@H](CC[C@H](O)c2ccc(F)cc2)[C@@H](c2ccc(O)cc2)N1c1ccc(F)cc1 [Ezetimibe (Zetia)] >= -0.2?
Result :: true (1)

Query :: Threshold query (growth inhibition by drug alone >= -0.2) on C=CC[C@@H]1/C=C(\C)C[C@H](C)C[C@H](OC)[C@H]2O[C@@](O)(C(=O)C(=O)N3CCCC[C@H]3C(=O)O[C@H](/C(C)=C/[C@@H]3CC[C@@H](O)[C@H](OC)C3)[C@H](C)[C@@H](O)CC1=O)[C@H](C)C[C@@H]2OC [FK-506 (Tacrolimus)]
Result :: true (1)

Query :: Does the reported growth inhibition by drug alone for "COc1cc(N2CCC(N3CCN(C)CC3)CC2)ccc1Nc1ncc(Cl)c(Nc2ccccc2S(=O)(=O)C(C)C)n1" fall at or above the -0.2 mark?
Result :: false (0)

Query :: Could you tell me if the measured growth inhibition by drug alone of "O=C(O)c1ccc2cc(-c3ccc(O)c(C45CC6CC(CC(C6)C4)C5)c3)ccc2c1" reaches -0.2 or more?
Result :: false (0)

Query :: Determine whether measured growth inhibition by drug alone meets or exceeds -0.2 for CC[C@@H]1C(=O)N(C)c2cnc(Nc3ccc(C(=O)N[C@H]4CC[C@H](N5CCN(CC6CC6)CC5)CC4)cc3OC)nc2N1C(C)C [BI6727 (Volasertib)]
Result :: true (1)

Query :: Does growth inhibition by drug alone meet or surpass -0.2 for C[C@]1(c2nc3c(C(N)=O)cccc3[nH]2)CCCN1 [ABT-888 (Veliparib)] ?
Result :: false (0)
